# test.target: SHP2-C SH2
# test.method.notes: SH2 binding enrichment of the phosphorylated peptide, bacterial display (enrichment ratio); higher = better substrate or ligand; peptides without Tyr show the background
quantity.measured: SH2 binding enrichment
Answers are plain numbers.

Examples with answers:
[[record]]
sequence = "PRNLIYFGEHP [TRPV6_Y201_C197R]"
quantity_measured = "SH2 binding enrichment"
experimental_value = 0.598

[[record]]
sequence = "LESTLYESSVV [TRPV4_Y91]"
quantity_measured = "SH2 binding enrichment"
experimental_value = 0.861

[[record]]
sequence = "ILLAGCLVMVI [SLC28A3_Y113_Y113C]"
quantity_measured = "SH2 binding enrichment"
experimental_value = 0.534

[[record]]
sequence = "THQKSYQPGRK [CEFIP_Y210_N208K]"
quantity_measured = "SH2 binding enrichment"
experimental_value = 0.408


Dear colleague, could you please provide SH2 binding enrichment for the sequences listed below?
1. KDKLPYPFDDP [GPX2_Y125_YF]
2. ALLVFYAATIA [SLC20A2_Y187_P184L]

[0.854, 0.969]

* * *

# test.target: Fyn (UniProt P06241)
# Sequence (P06241 whole entry, looked up): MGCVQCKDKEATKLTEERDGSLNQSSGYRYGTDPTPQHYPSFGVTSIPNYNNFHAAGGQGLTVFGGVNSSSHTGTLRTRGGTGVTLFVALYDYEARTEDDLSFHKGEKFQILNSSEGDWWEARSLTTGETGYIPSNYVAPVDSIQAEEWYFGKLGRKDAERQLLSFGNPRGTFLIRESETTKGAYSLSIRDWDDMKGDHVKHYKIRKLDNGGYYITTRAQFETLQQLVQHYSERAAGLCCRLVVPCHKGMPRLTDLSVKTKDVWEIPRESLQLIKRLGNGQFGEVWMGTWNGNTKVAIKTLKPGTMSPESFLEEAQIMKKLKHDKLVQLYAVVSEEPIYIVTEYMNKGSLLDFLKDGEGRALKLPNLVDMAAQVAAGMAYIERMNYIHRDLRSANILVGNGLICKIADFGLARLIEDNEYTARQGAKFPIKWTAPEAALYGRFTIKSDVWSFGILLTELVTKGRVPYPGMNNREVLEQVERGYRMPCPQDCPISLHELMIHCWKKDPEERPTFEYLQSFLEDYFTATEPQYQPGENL
# test.method.notes: phosphorylation enrichment, bacterial display (enrichment ratio); higher = better substrate or ligand; peptides without Tyr show the background
quantity.measured: phosphorylation enrichment

Examples with answers:
[[record]]
sequence = "LSALDYKIFFF [WDPCP_Y210_YF]"
quantity_measured = "phosphorylation enrichment"
experimental_value = 0.418

[[record]]
sequence = "FRNSLYAPDFS [FAM92A_Y226_YF]"
quantity_measured = "phosphorylation enrichment"
experimental_value = 1.02

[[record]]
sequence = "GHMFAYDWISI [BEST1_Y227_L224M_YF]"
quantity_measured = "phosphorylation enrichment"
experimental_value = 0.935

[[record]]
sequence = "FESPRYLQVHI [FANCA_Y488]"
quantity_measured = "phosphorylation enrichment"
experimental_value = 0.408

[[record]]
sequence = "DSKIRYLSADS [TTF1_Y476_E473K]"
quantity_measured = "phosphorylation enrichment"
experimental_value = 0.389


Dear colleague, could you please provide phosphorylation enrichment for the sequences listed below?
1. EREFKYGAHNF [OAT_Y50_YF]
2. AKGMKYVASKK [MET_Y1194_L1195V]
3. KTDVRYRSLGG [DYSF_Y1858_H1857R]
4. SSMIDYNTLEK [MYOC_Y479_P481T]
5. CLLHCYFSQIR [MCM3AP_Y873]
6. SVVVPYGPPEV [TP53_Y220_E221G]

[0.442, 0.339, 0.35, 0.452, 0.327, 0.46]

* * *

Would you mind telling me the reported phosphorylation enrichment of each entry?
# test.target: MERTK (UniProt Q12866)
# Sequence (Q12866 whole entry, looked up): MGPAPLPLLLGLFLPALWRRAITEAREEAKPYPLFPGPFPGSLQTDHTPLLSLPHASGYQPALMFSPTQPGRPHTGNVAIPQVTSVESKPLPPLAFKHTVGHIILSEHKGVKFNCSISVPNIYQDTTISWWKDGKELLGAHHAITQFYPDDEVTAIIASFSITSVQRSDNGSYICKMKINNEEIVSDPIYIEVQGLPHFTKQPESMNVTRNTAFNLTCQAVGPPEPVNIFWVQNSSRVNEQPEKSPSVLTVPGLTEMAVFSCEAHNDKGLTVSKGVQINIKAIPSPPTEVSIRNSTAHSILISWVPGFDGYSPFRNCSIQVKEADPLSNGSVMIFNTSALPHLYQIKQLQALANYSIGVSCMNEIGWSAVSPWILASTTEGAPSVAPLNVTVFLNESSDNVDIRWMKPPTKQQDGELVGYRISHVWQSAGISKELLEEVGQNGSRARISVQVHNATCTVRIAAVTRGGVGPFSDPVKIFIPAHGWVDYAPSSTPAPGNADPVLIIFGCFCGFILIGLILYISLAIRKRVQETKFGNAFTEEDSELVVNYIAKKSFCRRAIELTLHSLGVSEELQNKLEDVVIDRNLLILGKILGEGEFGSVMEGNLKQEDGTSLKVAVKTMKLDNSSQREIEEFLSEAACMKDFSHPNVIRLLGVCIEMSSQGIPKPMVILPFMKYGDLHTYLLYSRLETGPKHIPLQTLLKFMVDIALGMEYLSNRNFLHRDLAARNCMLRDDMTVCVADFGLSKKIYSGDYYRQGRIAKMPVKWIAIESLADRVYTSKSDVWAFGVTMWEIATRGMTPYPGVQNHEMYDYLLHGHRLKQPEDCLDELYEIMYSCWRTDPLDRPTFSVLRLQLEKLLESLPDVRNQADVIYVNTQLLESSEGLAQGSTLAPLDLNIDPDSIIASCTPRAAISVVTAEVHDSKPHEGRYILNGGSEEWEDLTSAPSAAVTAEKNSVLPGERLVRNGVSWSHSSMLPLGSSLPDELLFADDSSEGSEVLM
# test.method.notes: phosphorylation enrichment, bacterial display (enrichment ratio); higher = better substrate or ligand; peptides without Tyr show the background
One number for each entry.

Examples with answers:
[[record]]
sequence = "GNHVSYYQSDG [CACNA1C_Y1757]"
quantity_measured = "phosphorylation enrichment"
experimental_value = 0.81

[[record]]
sequence = "DAKAIYDFTDT [PDK1_Y136]"
quantity_measured = "phosphorylation enrichment"
experimental_value = 5.88


Dear colleague, could you please provide phosphorylation enrichment for the sequences listed below?
1. DSKIRYLSADS [TTF1_Y476_E473K]
2. NKEAIYSGYIR [SMCHD1_Y283]
3. IFLADCRIMEG [ALOX12B_Y318_Y318C_YF]
4. SGIFQYNIAKF [FOXL2_Y83_I84N_YF]
5. AKGMKYVASKK [MET_Y1194_L1195V]

0.435
9.45
0.5
0.435
0.349

* * *

# test.target: EPHB2 (UniProt P29323)
# Sequence (P29323 whole entry, looked up): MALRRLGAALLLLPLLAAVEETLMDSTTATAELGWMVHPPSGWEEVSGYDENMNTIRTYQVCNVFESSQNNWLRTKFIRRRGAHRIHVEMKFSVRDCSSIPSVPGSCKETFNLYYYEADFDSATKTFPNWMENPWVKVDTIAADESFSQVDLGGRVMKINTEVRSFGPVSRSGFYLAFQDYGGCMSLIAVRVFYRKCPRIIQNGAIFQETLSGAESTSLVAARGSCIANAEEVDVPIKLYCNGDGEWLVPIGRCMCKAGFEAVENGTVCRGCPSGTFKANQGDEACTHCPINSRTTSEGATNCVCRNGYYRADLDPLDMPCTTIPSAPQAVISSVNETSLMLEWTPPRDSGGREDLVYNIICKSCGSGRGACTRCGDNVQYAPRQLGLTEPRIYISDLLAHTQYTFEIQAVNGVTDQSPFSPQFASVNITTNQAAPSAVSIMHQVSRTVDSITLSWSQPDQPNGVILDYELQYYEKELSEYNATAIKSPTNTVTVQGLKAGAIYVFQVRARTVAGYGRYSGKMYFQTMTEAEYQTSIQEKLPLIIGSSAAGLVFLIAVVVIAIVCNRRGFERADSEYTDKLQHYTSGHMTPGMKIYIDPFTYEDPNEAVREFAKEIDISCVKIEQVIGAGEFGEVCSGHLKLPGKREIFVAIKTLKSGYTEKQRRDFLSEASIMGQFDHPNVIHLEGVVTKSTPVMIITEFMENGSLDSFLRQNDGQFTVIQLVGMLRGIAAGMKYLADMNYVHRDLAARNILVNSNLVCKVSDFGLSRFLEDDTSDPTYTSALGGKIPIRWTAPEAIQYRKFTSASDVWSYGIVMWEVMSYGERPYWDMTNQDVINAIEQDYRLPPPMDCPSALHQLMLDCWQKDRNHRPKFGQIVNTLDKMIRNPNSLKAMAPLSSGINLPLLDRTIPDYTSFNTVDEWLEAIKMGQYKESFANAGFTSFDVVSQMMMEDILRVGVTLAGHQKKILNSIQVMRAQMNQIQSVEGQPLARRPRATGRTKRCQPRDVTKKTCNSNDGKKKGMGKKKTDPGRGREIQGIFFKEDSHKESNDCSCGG
# test.method.notes: phosphorylation enrichment, bacterial display (enrichment ratio); higher = better substrate or ligand; peptides without Tyr show the background
Would you mind telling me the reported phosphorylation enrichment of each entry?
Answers are plain numbers.

Examples with answers:
[[record]]
sequence = "MKGDYYRSLAE [YWHAG_Y131_Y133S]"
quantity_measured = "phosphorylation enrichment"
experimental_value = 0.508

[[record]]
sequence = "GRERPYGGGGG [FUS_Y526_R521G]"
quantity_measured = "phosphorylation enrichment"
experimental_value = 0.492

[[record]]
sequence = "IVEYAYNDKAV [PUM3_Y259_I264V]"
quantity_measured = "phosphorylation enrichment"
experimental_value = 0.418

[[record]]
sequence = "GKGGSYSKAES [HLA-E_Y341_W346S]"
quantity_measured = "phosphorylation enrichment"
experimental_value = 0.295

[[record]]
sequence = "DPEATYTTSGG [EPHA2_Y772]"
quantity_measured = "phosphorylation enrichment"
experimental_value = 0.57

[[record]]
sequence = "EACRSYSHVVL [CHST6_Y168]"
quantity_measured = "phosphorylation enrichment"
experimental_value = 0.498

[[record]]
sequence = "EHTTLYSDNST [KANSL1_Y223_N225D]"
quantity_measured = "phosphorylation enrichment"
experimental_value = 0.433

[[record]]
sequence = "YEDALYTVLHR [UNC13D_Y61]"
quantity_measured = "phosphorylation enrichment"
experimental_value = 15.9

[[record]]
sequence = "MGSFNYLGFPR [SPTLC2_Y178_A182P_YF]"
quantity_measured = "phosphorylation enrichment"
experimental_value = 0.917

[[record]]
sequence = "ANVKWYRSGRE"
quantity_measured = "phosphorylation enrichment"
experimental_value = 0.425


Dear colleague, could you please provide phosphorylation enrichment for the sequences listed below?
1. LNPLFYSLRNK [OR5R1_Y290_I289F]
2. PEVRRYVLPLN [RPE65_Y368]

1: 0.537; 2: 0.811

Dear colleague, could you please provide phosphorylation enrichment for the sequences listed below?
1. DAGTDYVGISC [FREM2_Y2061_R2066C]
2. EDGCIYPGTIA [SMN1_Y109_A111G]

[0.619, 0.613]

Dear colleague, could you please provide phosphorylation enrichment for the sequences listed below?
1. RIVEIYSRSLQ [GCH1_Y175_R178S]
2. PYYASYPPSPD [GDAP2_Y491_T489A]
3. HRGSLYLAIEF [TEK_Y899_Y897S_YF]
4. PDNEPYIFKVF [PIK3AP1_Y553]
5. DEIPLYLKGGV [COX7A2_Y44]
6. LSVEIHDRREY [ITGB7_Y753_Y753H]

1. 0.985
2. 17.7
3. 0.491
4. 0.787
5. 0.508
6. 0.54

Dear colleague, could you please provide phosphorylation enrichment for the sequences listed below?
1. HEVHIYEKSGA [ARPC1B_Y35]
2. EFLHKYKGFKI [SYNE1_Y6953_Q6951H_YF]
3. KDGSGYISAAE [CALM1_Y100_N98S]
4. EVESPYEVHDF [GIGYF2_Y1168_YF]
5. ALLVFYAATIA [SLC20A2_Y187_P184L]

[0.611, 0.264, 0.409, 0.922, 0.565]

* * *

# test.target: Grb2 SH2 (UniProt P62993)
# Sequence (P62993 whole entry, looked up): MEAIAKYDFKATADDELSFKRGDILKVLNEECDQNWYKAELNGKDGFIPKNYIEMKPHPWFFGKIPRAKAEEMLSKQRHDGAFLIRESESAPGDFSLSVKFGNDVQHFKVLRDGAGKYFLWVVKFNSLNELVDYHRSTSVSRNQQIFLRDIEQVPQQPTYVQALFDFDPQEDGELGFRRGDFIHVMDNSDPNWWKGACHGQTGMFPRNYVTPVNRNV
# test.method.notes: SH2 binding enrichment of the phosphorylated peptide, bacterial display (enrichment ratio); higher = better substrate or ligand; peptides without Tyr show the background
Would you mind telling me the reported SH2 binding enrichment of each entry?

[[record]]
sequence = "TSKLNYLDPRI [TOP1_Y723]"
quantity_measured = "SH2 binding enrichment"
experimental_value = 0.813

[[record]]
sequence = "ILLAGCLVMVI [SLC28A3_Y113_Y113C]"
quantity_measured = "SH2 binding enrichment"
experimental_value = 0.92

[[record]]
sequence = "KRLDGYVLEGR [IGSF9_Y656]"
quantity_measured = "SH2 binding enrichment"
experimental_value = 0.791

[[record]]
sequence = "KTDKKYLMIKE [BAG3_Y451_E455K]"
quantity_measured = "SH2 binding enrichment"
experimental_value = 0.897


Dear colleague, could you please provide SH2 binding enrichment for the sequences listed below?
1. ALKWGYTVKGI [OAT_Y158_R154L]
2. VTSLKYSTPPY [BRIP1_Y916_S919P]
3. FKEIVYAVSSD [DCX_Y70_G67E]
4. SFKNKYGMVAQ [APOB_Y276_YF]
5. SFHSSYSEIKD [DCLRE1C_Y322]
6. LPEVSYVKAID [GLRA1_Y307_K304E]
7. YPLELYERVRI [PRKCG_Y312_M317I]

[0.872, 0.955, 0.913, 0.934, 0.982, 0.862, 0.974]

Dear colleague, could you please provide SH2 binding enrichment for the sequences listed below?
1. QHNPEYVQQAT [LRRC7_Y1058_S1063T]
2. FDDDDYDTDFV [BLM_Y296]
3. IYRASYVPFAA [RBM47_Y541_G538R]
4. ATVLNYLPKCI [A2M_Y817]
5. KKLAEYGPQGR [CLCA1_Y147]
6. QGLRLYRTHLA [BTK_Y617_P619T]

1: 0.838; 2: 0.803; 3: 0.866; 4: 0.899; 5: 0.901; 6: 1.34

Ref: the supplement of paper PMC10065799
